- assay-system: Signal transducer and activator of transcription 3 (Homo sapiens, UniProt P40763)
- Sequence (P40763 whole entry): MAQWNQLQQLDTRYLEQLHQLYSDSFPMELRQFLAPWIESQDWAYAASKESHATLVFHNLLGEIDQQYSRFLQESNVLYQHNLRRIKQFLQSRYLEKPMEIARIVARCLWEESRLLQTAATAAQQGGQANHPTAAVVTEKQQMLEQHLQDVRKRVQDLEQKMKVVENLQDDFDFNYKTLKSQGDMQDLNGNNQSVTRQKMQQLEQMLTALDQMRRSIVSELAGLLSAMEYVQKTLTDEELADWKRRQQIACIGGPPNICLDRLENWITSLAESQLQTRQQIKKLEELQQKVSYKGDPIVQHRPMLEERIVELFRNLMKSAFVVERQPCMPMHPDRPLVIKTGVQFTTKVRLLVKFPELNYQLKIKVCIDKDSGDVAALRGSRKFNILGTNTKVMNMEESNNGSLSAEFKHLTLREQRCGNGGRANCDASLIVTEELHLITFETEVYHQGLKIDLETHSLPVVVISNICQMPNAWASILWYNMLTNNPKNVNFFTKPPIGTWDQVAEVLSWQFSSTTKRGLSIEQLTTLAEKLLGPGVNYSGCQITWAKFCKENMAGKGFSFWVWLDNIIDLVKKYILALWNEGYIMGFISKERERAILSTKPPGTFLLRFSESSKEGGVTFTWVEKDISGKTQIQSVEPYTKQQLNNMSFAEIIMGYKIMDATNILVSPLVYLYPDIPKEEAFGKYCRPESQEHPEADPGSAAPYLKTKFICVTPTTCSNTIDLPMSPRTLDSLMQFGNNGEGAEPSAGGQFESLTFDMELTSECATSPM
- test-details: Binding affinity to recombinant human STAT3 using 5-FAM-G(pTyr)LPQTV-NH2 as substrate preincubated with compound for 1 hr followed by substrate addition and measured after 30 mins by fluorescent polarization based binding assay
assay-readout: IC50 (µM)
# unit: µM | format: bare number

What does the record list as IC50 for C=C1C(=O)O[C@@H]2C[C@@]3(C)CC[C@@H](OC(=O)[C@H](C)NC(=O)c4ccc(/C=C/C(=O)NO)cc4)C(=C)[C@@H]3C[C@H]12 ?
0.35

====

- assay-system: Histone deacetylase 1 (Homo sapiens)
- Sequence (Q13547 whole entry): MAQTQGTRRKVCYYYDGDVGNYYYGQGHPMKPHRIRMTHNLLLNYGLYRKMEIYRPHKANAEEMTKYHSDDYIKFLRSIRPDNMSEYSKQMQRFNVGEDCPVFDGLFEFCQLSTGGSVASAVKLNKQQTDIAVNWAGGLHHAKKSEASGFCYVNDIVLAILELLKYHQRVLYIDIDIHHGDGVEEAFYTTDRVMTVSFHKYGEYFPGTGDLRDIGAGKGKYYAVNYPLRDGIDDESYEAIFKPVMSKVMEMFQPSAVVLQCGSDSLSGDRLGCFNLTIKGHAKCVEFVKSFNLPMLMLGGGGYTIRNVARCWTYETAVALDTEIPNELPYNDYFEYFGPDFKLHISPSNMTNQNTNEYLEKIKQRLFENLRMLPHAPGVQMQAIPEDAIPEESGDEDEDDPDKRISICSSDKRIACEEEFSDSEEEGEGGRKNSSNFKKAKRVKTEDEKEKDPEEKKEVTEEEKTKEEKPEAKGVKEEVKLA
- test-details: Inhibition of recombinant human HDAC1 using Boc-Lys (acetyl)-AMC as substrate preincubated with compound for 1 hr followed by substrate addition and measured after 30 mins by microplate reader assay
Give IC50 for every item shown.

Item: C=C1C(=O)O[C@@H]2C[C@@]3(C)CC[C@@H](OC(=O)[C@H](NC(=O)c4ccc(C(=O)Nc5ccccc5N)cc4)C(C)C)C(=C)[C@@H]3C[C@H]12 Test system: Histone deacetylase 1 (Homo sapiens) Read-out: IC50 Value: ?
> 1000 nM

Item: C=C1C(=O)O[C@@H]2C[C@@]3(C)CC[C@@H](OC(=O)CNC(=O)c4ccc(C(=O)Nc5ccccc5N)cc4)C(=C)[C@@H]3C[C@H]12 Test system: Histone deacetylase 1 (Homo sapiens) Read-out: IC50 Value: ?
> 1000 nM

Item: C=C1C(=O)O[C@@H]2C[C@@]3(C)CC[C@@H](OC(=O)[C@H](C)NC(=O)c4ccc(/C=C/C(=O)NO)cc4)C(=C)[C@@H]3C[C@H]12 Test system: Histone deacetylase 1 (Homo sapiens) Read-out: IC50 Value: ?
62 nM
